Origin of the recorded values: patent US6653309B1

// endpoint pKi / system IMPDH human type II (Homo sapiens)
pKi: −log10 of the molar value.

>>> result("COc1ccc(NC(=O)c2cc3ccccc3cc2O)c(OC)c1")
"4.70 to 5.00"

The reported value for "O=C(Nc1cccc(Cl)c1)c1cc2ccccc2cc1O" in terms of pKi is 4.70 to 5.00

For this compound ( "O=C(Nc1ccccc1Oc1ccccc1)c1ccc2ccccc2c1O" ), measured pKi is 4.70 to 5.00

# pKi (compound: "O=C(Nc1ccc(F)cc1)c1cc2ccccc2cc1O" ) is 4.70 to 5.00

Query "COc1cc2c(cc1NC(=O)c1cc3ccccc3cc1O)oc1ccccc12" yields pKi of > 5.00

So, "COc1ccccc1C(=O)Nc1ccccc1Oc1ccccc1" ? Its pKi was 4.70 to 5.00

Recorded pKi (compound "COc1ccc(OC)c(S(=O)(=O)Nc2ccc(C#N)cc2)c1" ): 4.70 to 5.00

Recorded pKi (compound "O=C(Nc1ccccc1F)c1cc2ccccc2cc1O" ): 4.70 to 5.00

Lab book: pKi of "COc1cccc(NC(=O)c2cc3ccccc3cc2O)c1" noted as < 4.70

Looking up "O=C(Nc1ccccc1Cl)c1cc2ccccc2cc1O" , I see its pKi listed as 4.70 to 5.00

Data point: "CSc1ccccc1NC(=O)c1cc2ccccc2cc1O" ; pKi = > 5.00

Measured pKi, "COc1ccccc1NC(=O)c1cc2ccccc2cc1NC(=O)C(F)(F)F" : 4.70 to 5.00

* * *

# targetOfAssay: IMPDH human type II (Homo sapiens)
Quick reference: Ki of the listed items.

Below, 7 compounds whose answers are already recorded.
>>> result("COc1cc(NC(=O)c2cc3ccccc3cc2O)c(OC)cc1Cl")
"< 10 µM"
>>> result("COc1ccccc1C(=O)Nc1cc2ccccc2cc1O")
"< 10 µM"
>>> result("COc1ccccc1NC(=O)c1ccc(C)cc1O")
"> 20 µM"
>>> result("COc1cc(NC(=O)Oc2cccc(CNC(=O)O[C@H]3CCOC3)c2)ccc1-c1cnco1")
"< 10 µM"
>>> result("COc1cc(Cl)c(C)cc1NC(=O)c1cc2ccccc2cc1O")
"< 10 µM"
>>> result("O=[N+]([O-])c1cccc(S(=O)(=O)Nc2ccc(-c3cnco3)cc2)c1")
"10 to 20 µM"
>>> result("COc1ccccc1NC(=O)c1cc2ccccc2cc1OC(=O)c1ccccc1")
"< 10 µM"

Consider the record given below.
// Ki lookup, compound = "COc1ccc(OC)c(S(=O)(=O)Nc2ccccc2[N+](=O)[O-])c1" , result: 10 to 20 µM

* * *

# targetOfAssay: UniProt P12268
# protocolSummary: IMPDH Activity Inhibition Assay
# Assay type: biochemical
# testConditions: spectrophotometric NADH formation at 340 nm, 37° C., tight-binding equation of Henderson
Let's look at some compounds and their measured Ki.

Solved entries (count: 4):
>>> result("COc1ccccc1NC(=O)c1cc2cc(Br)ccc2cc1OC(C)=O")
"10 to 20 µM"
>>> result("COc1ccc(Br)cc1S(=O)(=O)Nc1cc2ccccc2cc1O")
"10 to 20 µM"
>>> result("CCCC(=O)Oc1cc2ccccc2cc1C(=O)Nc1cccc(OC)c1")
"> 20 µM"
>>> result("O=C(Nc1ccccc1O)c1ccc2ccccc2c1O")
"> 20 µM"

Sample "COc1ccc(S(=O)(=O)C(F)F)cc1NC(=O)c1cc2ccccc2cc1O" , system: UniProt P12268. Its Ki is 10 to 20 µM

Bench note, UniProt P12268: entry "COc1ccccc1NCc1cc2cc(Br)ccc2cc1O" , its Ki = < 10 µM

Record for "COc1ccc(OC)c(S(=O)(=O)Nc2cccc([N+](=O)[O-])c2)c1" under target or system UniProt P12268: Ki reported as 10 to 20 µM

So the reported Ki for "COc1ccc(C)cc1NC(=O)c1ccc2ccccc2c1O" , on UniProt P12268, turned out to be > 20 µM

The compound "O=C(Nc1ccc(OC(F)(F)F)cc1)c1cc2ccccc2cc1O" , when measured on UniProt P12268, yielded Ki of 10 to 20 µM
